# credit: the supplement of paper PMC9170038

Test system: K4 kissing-loop RNA reporter
ASSAY_REMARKS: apparent KD of K4 kissing-loop reporter; higher = weaker reporter binding
CONDITION_LABEL: Eterna round: R107; input ligand: FMN 200 uM
Give Criterion met when the value for apparent KD of K4 kissing-loop reporter is at least 200 nM. Give Criterion not met when it is less.

Recorded results for 3 sequences are shown here.
[
  {
    "QUERY_SEQUENCE": "UAUUGUACAGGGAAAUUGAUAAUAGACUUACGAGGACCGGUACGGCCGCCACUCGAUAGUCGAGUGAUGUUCGAAUGCUAUUGAU [Attempt 1]",
    "LABEL_VALUE": "Criterion met"
  },
  {
    "QUERY_SEQUENCE": "CAUGGACUUCCAGUGUAUCCAUGACUGGAUACCAGUCAGGAAACUGACCCUUGGCAGCCAGAACUGGAAGUGAUGUUUCCAGUAA [Design8]",
    "LABEL_VALUE": "Criterion met"
  },
  {
    "QUERY_SEQUENCE": "AGGAGUGAUGUUCCUACAUAGACGGUCCAACGAGGACCGGUACGGCCGCCACUCGCGACCCAGUGAUGUUGGGAUUCACCGUACA [Exclusion Tryptophan A Gf 14]",
    "LABEL_VALUE": "Criterion met"
  }
]

Problem: Say whether AUCUGUCAAGGACAACAUUACUGAGGUGAUACCAGCAUCGAAAGAUGCCCUUGGCAGCACCAACUUGCAGUGAUGUUGCAAGUAA [BrourdMod 10 - Jieux - Exclusion - Theophylline A] shows apparent KD of K4 kissing-loop reporter of 200 nM or more.
Result: Criterion met

Problem: Say whether GCUAUGGUAGGAAGGAGCGCUUGUUCGGUCAUAUGAGUGAUGUUCGAGACUGAGCAUUUAUAGCAGGUAGGUCGCCUACUAUAGC [Arginine B K4 10] shows apparent KD of K4 kissing-loop reporter of 200 nM or more.
Result: Criterion not met

Problem: Say whether AGGGCUGAGAGCGAUACCAGCGGAUACUAUAUGGUCCAAUAGAGUGAUGUUUUAUAAAGCCGCCCUUGGCAGCGCAAUCUAUUAG [XTheo-B4] shows apparent KD of K4 kissing-loop reporter of 200 nM or more.
Result: Criterion met

Problem: Say whether GCCGUAGAUGGAAGGAGCGAGGUAGACUGUUGAAGUGAUGUUUCAACUCAUUAAGCCCAACCUCAGGUAGGUCGCCAUCUACGGC shows apparent KD of K4 kissing-loop reporter of 200 nM or more.
Result: Criterion not met

---

Measured apparent KD of MS2 coat protein, listed per entry.
Tested on: MS2 coat protein
ASSAY_REMARKS: apparent KD of MS2 coat protein; designed switch direction (-1 OFF switch, 1 ON switch): 1; higher = weaker reporter binding
CONDITION_LABEL: input ligand: microRNA oligo, concentration not stated
Kindly provide the numeric value in nM only, without the unit symbol.

Sample answers from the record:
[
  {
    "QUERY_SEQUENCE": "AUAAAUAACACAGGAUAUCCGCACGGGUAGUGCGGAGAAGGGUGAACGUCGGCUCUCGCCAACAUGAGGAUCACCCAUGUAAAG [Letiusle] (Eterna round: R96, puzzle: Same State NG 1)",
    "UNIT_SPEC": "nM",
    "apparent KD of MS2 coat protein": 27.7
  },
  {
    "QUERY_SEQUENCE": "AAUUGUUUCUGAGGAUAUCAGUAGUAUGCUUUUUGAGAAGGCAGUACAUGAGGAUCACCCAUGUUGUGGUUUGAUAGAAUGAUA [JR_SSNG1_Sub004] (Eterna round: R96, puzzle: Same State NG 1)",
    "UNIT_SPEC": "nM",
    "apparent KD of MS2 coat protein": 130
  },
  {
    "QUERY_SEQUENCE": "UUACUCAUGUAAGGAUAUGCAGCCGUUUCGGCUGCAGAAGGUACUAUAAUACAUGAGGAUCACCCAUGUCUCUAUUAUUUAGUU [JL SSNG1 1.43] (Eterna round: R96, puzzle: Same State NG 1)",
    "UNIT_SPEC": "nM",
    "apparent KD of MS2 coat protein": 39.6
  },
  {
    "QUERY_SEQUENCE": "CCGGUUUAUGGAGGAUAUGGAGCCUUAUUGGCUCCAGAAGGCUAAACAUGAGGAUCACCCAUGUUACCGGCGGUCAAUAGACCG [Eli NG1ss - 60] (Eterna round: R96, puzzle: Same State NG 1)",
    "UNIT_SPEC": "nM",
    "apparent KD of MS2 coat protein": 20.5
  }
]

Problem: Please report the recorded apparent KD of MS2 coat protein for AAAACAUGACGAGGAUAUGGAACAUGAGGAUCACCCAUGUAUGUUCCAUAACGCGAAUGACGAAUCCAGAAGGCGUCGUGAAAA [Mat - Same State NG 2 - JL mod - D27] (Eterna round: R96, puzzle: Same State NG 2) .
Result: 181

Problem: Please report the recorded apparent KD of MS2 coat protein for GAGCCAGUCCGAGGAUAUUCGUAGUACCACAUGAGGAUCACCCAUGUGGGCUCAGAAGAGCCCUUGGAGAAGGCGGGCUGGCUC [SS-NG2-LRO20] (Eterna round: R96, puzzle: Same State NG 2) .
Result: 5.99

---

Test system: K4 kissing-loop RNA reporter
ASSAY_REMARKS: apparent KD of K4 kissing-loop reporter; higher = weaker reporter binding
CONDITION_LABEL: Eterna round: R107; input ligand: tryptophan 2.4 mM
Measured apparent KD of K4 kissing-loop reporter, listed per entry.
Answer shape: numeric part, then the unit.

Problem: Could you share what apparent KD of K4 kissing-loop reporter was measured for UGGACCUGACUCGAUAAGAGUCAAUGAGAUACCAGUGACGAAAGUCACCCUUGGCAGCUCACUGCCAGUGAUGUUGGUAGGUCCU [#SwitchBubble 3 #StaticStem] , tested on K4 kissing-loop RNA reporter?
Result: 1070 nM

Problem: Could you share what apparent KD of K4 kissing-loop reporter was measured for UAGAGCAUCGCAGGAUAUCCUGCUUAACGUUGGAUUCCAGUGAUGUUGGAAAGCCGGCCUAGGGUAGGAGAAGGGCGGAUUUGAA [Edvean] , tested on K4 kissing-loop RNA reporter?
Result: 149 nM

Problem: Could you share what apparent KD of K4 kissing-loop reporter was measured for AUGUCUGAUAGCAGUGAUGUUGCUUCGGAUACCAGACGCGAUCUUGUCCCUUGGCAGCUGACACGGCACGUGCUAGGUUAGAAGG [whbob_Ex_Theo_A_th75] , tested on K4 kissing-loop RNA reporter?
Result: 134 nM

Problem: Could you share what apparent KD of K4 kissing-loop reporter was measured for AGAACUGUCUUGGAUACCAGUGAUGUUGGUAUCUGUGUGUGAGUGCAAAGCGUCCCACAUUGCCCUUGGCAGCUAAGACUGUUCA [Omei KL Theo B Exc A v1] , tested on K4 kissing-loop RNA reporter?
Result: 132 nM

Problem: Could you share what apparent KD of K4 kissing-loop reporter was measured for UGAUAGGACAGAAGGAGCGGUAGUGAUGUUGCCAAAAGAAUAAGGUGUCAAAAGACACCCUACCAGGUAGGUCGCUGUCCUAUCU , tested on K4 kissing-loop RNA reporter?
Result: 289 nM

Problem: Could you share what apparent KD of K4 kissing-loop reporter was measured for GGAUUUGAGUGAUGUUUAAAACGAGUGUCCAAGGAUAUUGCCCAAACAAGAAGGUGGGCAUGCUUUUGCGAUAAUCAACGGAGAC [theeternabot_exclusion_KL_FMN_A_9] , tested on K4 kissing-loop RNA reporter?
Result: 291 nM

Problem: Could you share what apparent KD of K4 kissing-loop reporter was measured for GCGCGGGAGUGAUGUUCCAAGUGGUGUUAGCGAGGACCGGUACGGCCGCCACUCGUUACGGCCGGGCCGUAGGAUACACUGGCGC [Same State - Tryptophan A (Freestyle 17)] , tested on K4 kissing-loop RNA reporter?
Result: 240 nM

Problem: Could you share what apparent KD of K4 kissing-loop reporter was measured for AAUAAGGUCGCCGAUACCAGCGCAGGCAGAGCAAAGCUCUGCCAAGUAGUGAUGUUACUGCGCCCUUGGCAGCGGUGGCACGACC [Omei KL Theo B SS C v3] , tested on K4 kissing-loop RNA reporter?
Result: 167 nM

Problem: Could you share what apparent KD of K4 kissing-loop reporter was measured for CCGAAGAACCAGUGAUGUUGGUUGACUAGACAGGAUAUGAGCAACAUCAGAAGGGUCUGGCUUCGGGAGAGAGUCGCGCUGACCU [Anditebier] , tested on K4 kissing-loop RNA reporter?
Result: 453 nM

Problem: Could you share what apparent KD of K4 kissing-loop reporter was measured for CUUGUACAUGCCGAGGUAGGUGCGGGUUAGCGAGGACCGGUACGGCCGCCACUCGCCAAGUGAUGUUUGGUCCUUUGGGUCGGCA , tested on K4 kissing-loop RNA reporter?
Result: 633 nM

Problem: Could you share what apparent KD of K4 kissing-loop reporter was measured for UAUCGAGUGAUGUUCGAUGUAGUUCAUUCAGAGGAUAUAGGAUGGGCUAGAAGGCUGAAAAGUGCUUCGAGUGAUGUUCGAAGAU [Exclusion FMN A GF 6] , tested on K4 kissing-loop RNA reporter?
Result: 44.7 nM

Problem: Could you share what apparent KD of K4 kissing-loop reporter was measured for CGCGCCCAGCCGGAUACCAGUGACCCGCUGGGAACCGCGGGCCCAGAGUGAUGUUCGGGACACCCUUGGCAGCCGCCUGGGCGGC [#2 Same State - Theophylline B Attempt #9 (HarryS)] , tested on K4 kissing-loop RNA reporter?;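 further: bound reporter read as fluorescence of individual clusters on recovered sequencing chips by microscopy, with normalized cluster intensities fitted with a binding model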
Result: 766 nM
